Test system: SRD5A2 (gene 6716)
EXPERIMENT: CCTE_Deisenroth_5AR_NBTE_ratio: CCTE's 5alpha-reductase NanoBRET Target Engagement Assay - Ratio, Deisenroth Lab (AID 2284322)
STATED CONDITIONS: actives raise or lower the signal
Calls of active or inactive are those of the source. Rule for the calls: active = hit-call score of the fitted dose curve at least 0.9, where 1 is the maximum; inactive = score below 0.9.
Outcomes: class 1 = active, class 0 = inactive

- CCCCCCCCCCCCCCCC(=O)OC[C@H](O)[C@H]1OC(=O)C(O)=C1O: class 0
- CC(C)=CCC[C@](C)(O)[C@@H]1CC=C(C)CC1: class 0
- CCCCCC(CO)CCC (centres undefined): class 0
- CCCCCCCCCCCCCOS(=O)(=O)O: class 1
